target: Adenosine A2 receptor (Rattus norvegicus, UniProt P29276+P30543)
measurementType: Ki (nM)

[P] CCCn1c(=O)[nH]c(=O)c2[nH]c(/C=C/c3cc(OC)c(OC)c(OC)c3)nc21
[Q] CCCn1c(=O)c2c(nc(/C=C/c3ccccc3)n2C)n(CCC)c1=O
Hi team, can someone confirm which has the larger Ki: P or Q ? Thanks. Give the label under which the chosen entry appears.
P

----------
assay: Water solubility of the compound; type: ADME; settings: read-out: S
measurementType: solubility

// recorded solubility for `CCCn1c(=O)c2c(nc(/C=C/c3ccc(OC)c(OC)c3)n2C)n(CCC)c1=O` : < 10 µg/mL

----------
organism: Cavia porcellus
measurementType: Ki ratio

{"smilesStr": "CCCCn1c(=O)c2nc(/C=C/c3cc(OC)c(OC)c(OC)c3)[nH]c2n(CCCC)c1=O", "measurementType": "Ki ratio", "assayValue": 15}
{"smilesStr": "CCCn1c(=O)c2c(nc(C3CCCC3)n2C)n(CCC)c1=O", "measurementType": "Ki ratio", "assayValue": 0.26}
{"smilesStr": "CCCn1c(=O)[nH]c(=O)c2[nH]c(/C=C/c3cc(OC)c(OC)c(OC)c3)nc21", "measurementType": "Ki ratio", "assayValue": 0.37}
{"smilesStr": "CCCn1c(=O)c2nc(CCc3ccccc3)[nH]c2n(CCC)c1=O", "measurementType": "Ki ratio", "assayValue": 0.09}
{"smilesStr": "CCCn1c(=O)c2c(nc(/C=C/c3ccc(OC)cc3)n2C)n(CCC)c1=O", "measurementType": "Ki ratio", "assayValue": 78}

[a] CCCn1c(=O)c2nc(CCC3CCCC3)[nH]c2n(CCC)c1=O
[b] CCCn1c(=O)c2c(nc(C/C=C/c3ccccc3)n2C)n(CCC)c1=O
For the pair a and b , which member has the lower Ki ratio number? Give the label under which the chosen entry appears.
a
(a: 0.053, b: 1.9)

[A] CCCn1c(=O)c2nc(-c3ccc(S(=O)(=O)N(C)CCN(C)C)cc3)[nH]c2n(CCC)c1=O
[B] CCCn1c(=O)c2c(nc(CCc3ccccc3)n2C)n(CCC)c1=O
Hi team, can someone confirm which has the larger Ki ratio: A or B ? Thanks. Give the label under which the chosen entry appears.
A
(A: 5.4, B: 0.59)

----------
So I've got Ki readings for Adenosine receptor A1 (Rattus norvegicus, UniProt P25099), take a look.
measurementType: Ki (µM)

Below, 2 molecules whose answers are already recorded.
{"smilesStr": "CCCn1c(=O)c2c(nc(/C=C/c3ccc(OC)c(OC)c3)n2C)n(CCC)c1=O", "assayValue": 0.43}
{"smilesStr": "CCCn1c(=O)c2c(nc(/C=C/c3ccccc3)n2C)n(CCC)c1=O", "assayValue": 0.22}

[I] CCCn1c(=O)c2c(nc(/C=C/c3ccc(OC)cc3)n2C)n(CCC)c1=O
[II] CCCn1c(=O)c2c(nc(/C=C/c3cc(OC)c(OC)c(OC)c3)n2C)n(CCC)c1=O
For the pair I and II , which member has the lower Ki number? Give the label under which the chosen entry appears.
I

----------
organism: Cavia porcellus
measurementType: Ki ratio

{"smilesStr": "CCCn1c(=O)c2c(nc(/C=C/c3ccccc3)n2C)n(CCC)c1=O", "measurementType": "Ki ratio", "assayValue": 48}

[a] CCCn1c(=O)c2c(nc(/C=C/c3cc(OC)c(OC)c(OC)c3)n2C)n(CCC)c1=O
[b] CCCn1c(=O)c2nc(C/C=C/c3ccccc3)[nH]c2n(CCC)c1=O
[c] CCCCn1c(=O)c2c(nc(/C=C/c3cc(OC)c(OC)c(OC)c3)n2C)n(CCCC)c1=O
I would appreciate it if you could sort these 3 compounds by Ki ratio, starting from the smallest number. Returns: the labels listed in the requested order.
b, c, a

Data origin, for the record: ChEMBL document CHEMBL1126087
